Record form. Attribute: growth inhibition. Fill in for each entry.
assay_explanation: NCI Yeast Anticancer Drug Screen. Data for the bub3 strain (AID 167)
run_parameters: S. cerevisiae bub3 mutant strain, at 50.0 µM, stronger effect = higher value
This is part of a sample that, as a whole, favours compounds with a hit. Of some 79,000 tested, about 15% had one in any assay.
Answers are plain numbers, in %.

Sample answers from the record:
CC(=O)N(C)c1cccc2ccccc12    6.75
CC(O)CN1c2ccccc2Sc2ccc(Cl)cc21 (configuration not stated)    -4.9
COc1c(N)c(C)nc(Cl)c1C#N    -0.75
CC(=O)NNc1nc(C)c(C(/C=C/c2ccc(NC(C)=O)cc2)=N/NS(=O)(=O)c2ccc(C)cc2)s1    6.35
CC(C)(C)N1CCC(=O)C1=O    5.85

Would you mind giving growth inhibition for every compound in the list below?
1. FC(F)C(F)(F)N1c2ccccc2Sc2ccccc21
2. COC(=O)C(C)(C#N)/C(C)=C/C(C)C (configuration not stated)
3. CC(=O)Nc1ccc(S(=O)(=O)c2ccc(NC(C)=O)cc2)cc1
4. COc1cc2cc3c4cc(OC)c(OC)cc4cc[n+]3cc2cc1OC

**A:**
[27.1, -24.8, -26.5, -15.8]

* * *

assay_explanation: NCI Yeast Anticancer Drug Screen. Data for the cln2 rad14 strain (AID 165);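 note: 0% = growth equal to vehicle treated cultures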
run_parameters: S. cerevisiae cln2 rad14 strain, at 50.0 µM, stronger effect = higher value
Compounds without any hit were thinned out: in the full panel of roughly 79,000, 15% have a hit.
parameter_measured: growth inhibition (%)
One number for each entry, in %.

Sample answers from the record:
N#CC(C(=O)O)C(c1c(Cl)cccc1Cl)C(C#N)C(=O)O (configuration not stated)    -1.3
Fc1ccc(C(Nc2nncs2)Nc2nncs2)c(F)c1    -44.1
CC(C)CC(NC(=O)OC(C)(C)C)C(=O)O (configuration not stated)    14.6
CCCC1OCC(CC)C(CCC)O1 (configuration not stated)    -37

Would you mind giving growth inhibition for every compound in the list below?
1. CN1NC2=NCCN=C3NN(C)C(=NCCN=C1S2)S3
2. CCCCCCCCCC(O)CO (configuration not stated)
3. CCOC(=O)CN=c1nc(SC)sc2c(C(=O)OCC)nc(Sc3ccccc3)n12
4. CC(=O)OCC1OC(Cl)C(OC(=O)C(Cl)(Cl)Cl)C(OC(C)=O)C1OC(C)=O (configuration not stated)
5. NC(=O)NC1=NCCC(=O)N1CCc1c[nH]c2ccccc12
6. CC(C)(N)C(=O)N[C@@H]1C(=O)N2[C@@H]1SC(C)(C)[C@@H]2C(=O)O
7. CC(=O)N(C)C
8. CCC(=O)CCc1ccc(OC)cc1

**A:**
[9.15, 6.4, 13.6, -0.95, 78.5, -0.95, 6, -20.6]

* * *

assay_explanation: NCI Yeast Anticancer Drug Screen. Data for the bub3 strain (AID 167)
run_parameters: S. cerevisiae bub3 mutant strain, at 50.0 µM, stronger effect = higher value
About 79,000 compounds went through this panel and 15% of them were active in at least one assay; those are over-represented in the sample as a whole. The source made the active and inactive calls. Cut-off read from the data, not from the text of the source: active = growth inhibition above about 70%; inactive = the rest.
parameter_measured: growth inhibition

Sample answers from the record:
NC1C2CC3CC1CC(C2)O3 (stereo unspecified)    7.45% (inactive)
Cn1c(=O)c2c(nc(N3CCOCC3)n2CCCNCC(O)c2ccc(O)c(O)c2)n(C)c1=O (stereo unspecified)    -2.1% (inactive)
Nc1ccn(C2CC(F)C(CO)O2)c(=O)n1 (stereo unspecified)    7% (inactive)
CCN1C(=O)/C(=C\c2ccccc2)N=C1C    -12.8% (inactive)
CC(NC(=O)C(OC(=O)C(C)NC(=O)OC(C)(C)C)C(C)C)C(=O)OC(C(=O)O)C(C)C (stereo unspecified)    2.1% (inactive)

Would you mind giving growth inhibition for every compound in the list below?
1. Cc1c(-c2nc3ccccc3[nH]2)c(=O)n(-c2ccccc2)n1C
2. O=C(O)c1c[nH]c2c([N+](=O)[O-])cccc2c1=O
3. Fc1c(F)c(F)c(SN=S=Nc2ccccc2)c(F)c1F
4. COc1cc(NC=C2C(=O)OC(C)(C)OC2=O)c(OC)c(C)c1OC
5. CC(=O)c1cccc(NC(=O)N2CCCCC2C)c1 (stereo unspecified)

**A:**
-10.4% (inactive)
13.6% (inactive)
15.1% (inactive)
-22.9% (inactive)
15.2% (inactive)

**Q:** Using the record for `CC(C)=CCC1=C(O)[C@@](O)(CC=C(C)C)C(=O)C(C(=O)CC(C)C)=C1O` , report its growth inhibition.
**A:** 35.2% (inactive)

* * *

assay_explanation: NCI Yeast Anticancer Drug Screen. Data for the rad50 strain (AID 155);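 note: 0% = growth of vehicle-only cultures of the same strain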
run_parameters: S. cerevisiae rad50 strain growth inhibition; at 50.0 µM; stronger effect = higher value
The panel holds about 79,000 compounds, 15% with a hit somewhere; the sample as a whole holds those more often. Active and inactive are the calls of the source. Rule as the data show it: active = growth inhibition above about 70%; inactive = the rest.
parameter_measured: growth inhibition

Sample answers from the record:
COc1ccc(OC)c(NC(=O)C(=O)NNC(=O)c2sc(NNC(C)=O)nc2C)c1    66.7% (inactive)
CN(C)CSCCO    -2.8% (inactive)
CNCCN(C)Cc1ccccc1    -17.4% (inactive)
O=[N+]([O-])c1ccc2c(c1)Cc1cccc([N+](=O)[O-])c1-2    2% (inactive)

Would you mind giving growth inhibition for every molecule in the list below?
1. CN(C)c1ccc(/C=c2/sc3nc(=O)c(-c4ccccc4NC(=O)C(F)(F)F)nn3c2=O)cc1
2. CCOC(=O)CNC(=O)C(Cc1ccccc1)NC(=O)c1ccccc1NC(=O)c1ccccc1 (configuration not stated)

**A:**
["3.95% (inactive)", "28.8% (inactive)"]

Would you mind giving growth inhibition for every molecule in the list below?
1. CN1CCc2ccccc2C1Cc1cc(OCc2ccccc2)ccc1N (configuration not stated)
2. C/C(CCC1CCCCC1)=N/NC(N)=O
3. O=C(CC(=O)Nc1ccccc1)NNC(Sc1ccccc1)c1cc(N=Nc2ccc(Br)cc2)ccc1O (configuration not stated)

**A:**
1: 36.2% (inactive); 2: 14.6% (inactive); 3: 4.6% (inactive)

Would you mind giving growth inhibition for every molecule in the list below?
1. CCOC(=O)c1cnc2cc3c(cc2c1Nc1cccc(C)c1)OCO3
2. C/C(=N/Nc1ccc([N+](=O)[O-])cc1[N+](=O)[O-])C1=CCCCC1
3. O=C(c1ccccc1)N1C(c2ccccc2)C1(c1ccccc1)C1(c2ccccc2)SCCCS1 (configuration not stated)
4. C=CCOCC(COC(=O)CCCCCCCCCCCCCCCCC)OCC=C (configuration not stated)
5. CCCCCC(=O)OC[n+]1ccc2c(C)c3[nH]c4ccc(OC)cc4c3c(C)c2c1
6. COc1cc(N)ccc1C(=O)NC(CCC(=O)O)C(=O)O (configuration not stated)

**A:**
1: -9.9% (inactive); 2: -0.2% (inactive); 3: -17.6% (inactive); 4: -8.85% (inactive); 5: 87.8% (active); 6: -14.5% (inactive)

* * *

assay_explanation: NCI Yeast Anticancer Drug Screen. Data for the bub3 strain (AID 167)
run_parameters: S. cerevisiae bub3 mutant strain, at 50.0 µM, stronger effect = higher value
About 79,000 compounds went through this panel and 15% of them were active in at least one assay; those are over-represented in the sample as a whole. Calls of active or inactive are those of the source. Rule as the data show it: active = growth inhibition above about 70%; inactive = the rest. Where a SMILES comes first, the peptide text is derived from it. Bridges are numbered along the chain shown (N, C = ends). Roman numbers before positions name the chains, in order. The star is where a group is joined. Cbz = O=C(OCc1ccccc1)*
Record form. Attribute: growth inhibition. Fill in for each entry.

Sample answers from the record:
CC(OP(=O)(O)O)C(N)C(=O)O (configuration not stated)    -19.9% (inactive)
CC(=O)CC(=O)Nc1cccc(NC(=O)CC(C)=O)c1    -5.8% (inactive)
CC1(O)C=CC2CCC1C2O (configuration not stated)    0.15% (inactive)
CC(C)CCCC(C)C1CCC2C3CCC4CC(=O)CCCC4(C)C3CCC12C (configuration not stated)    2.1% (inactive)
OCCSCCCSCCO    1.1% (inactive)
O=C(Nc1ccc(C2=NCCN2)cc1)c1cncc(C(=O)Nc2ccc(C3=NCCN3)cc2)c1    8.95% (inactive)
COc1ccc(/C=N/N2CN(C(C)C(=O)O)C(C)(O)N=C2N)cc1OC (configuration not stated)    -25.6% (inactive)
CC(C)C(NC(=O)C(CSSCC(NC(=O)OCc1ccccc1)C(=O)NC(C(=O)O)C(C)C)NC(=O)OCc1ccccc1)C(=O)O (stereo not drawn) (I: Cbz-Cys-Val-OH / II: Cbz-Cys-Val-OH; disulfide I:1-II:1; configuration not given here)    -1% (inactive)
COc1ccc(C2(C=O)CN(C)CN2)cc1 (configuration not stated)    -13.8% (inactive)
O[C@H]1[C@H]2[C@H](O)C[C@H](CCOCc3ccccc3)CN2C[C@H]1O    16% (inactive)

Would you mind giving growth inhibition for every compound in the list below?
1. Cn1cnc(N)c1C(N)=S
2. Cc1[nH]c(=O)[nH]c(=O)c1CCS
3. CN(/N=C/c1ccccn1)C1=NCCN1
4. CCCNc1nc2c(c(=O)n(C)c(=O)n2C)n1C
5. Cc1c2c(c(C)c3c1C(=O)c1cc4c(cc1C3=O)OCO4)OC(C)O2
6. Cc1ccccc1-c1ccccc1
7. COc1cc2ccnc(C#N)c2cc1OCc1ccccc1
8. COc1ccc(C(C#N)NC23CC4CC(CC(C4)C2)C3)cc1OC (configuration not stated)

**A:**
1: 7.9% (inactive); 2: -20% (inactive); 3: 6.55% (inactive); 4: 23.1% (inactive); 5: -47.7% (inactive); 6: -5.8% (inactive); 7: -14.2% (inactive); 8: -56.2% (inactive)

Would you mind giving growth inhibition for every compound in the list below?
1. CCOC(=O)c1cnc2cc3c(cc2c1Nc1cccc(C)c1)OCO3
2. Cc1cc(Cl)ncc1[N+](=O)[O-]
3. Cc1ncc(C(N)=O)c(N)n1
4. COC(=O)C1=C(\N2CCOCC2)CCCC/C=C\1C(=O)OC

**A:**
1. -1.45% (inactive)
2. -9.65% (inactive)
3. -13.6% (inactive)
4. 3.65% (inactive)

Would you mind giving growth inhibition for every compound in the list below?
1. COc1ccc(Cc2cc(OC)c(OC)c(OC)c2)cc1O
2. Cc1cc(N(CCO)CCO)c2ccc3cc4ccccc4cc3c2n1
3. COc1cc(C2C(Cl)C(=O)N2NC(=O)c2ccc(NC(C)=O)cc2)cc(Br)c1O (configuration not stated)
4. O=C(O)C1CC(Br)C(Br)CC1C(=O)Nc1cccc2ccccc12 (configuration not stated)

**A:**
1. 19.9% (inactive)
2. 18.3% (inactive)
3. -7.9% (inactive)
4. 1.3% (inactive)

Would you mind giving growth inhibition for every compound in the list below?
1. C=CCO[Si](OCC=C)(OCC=C)OCC=C
2. O=[N+]([O-])c1ccc(OS(=O)(=O)c2ccccc2)cc1
3. CCC(CC)C(=O)NCC(=O)NO

**A:**
1. 9.6% (inactive)
2. 4.05% (inactive)
3. 0.6% (inactive)

Would you mind giving growth inhibition for every compound in the list below?
1. Cc1ccsc1/C=N/Nc1nncc2ccccc12
2. O=C(NC(=O)c1ccccc1O)c1ccccc1
3. O=C(c1ccccc1)[C@@H]1C[C@H](Sc2ccccc2)c2cc(Cl)ccc2N1

**A:**
["30.4% (inactive)", "-19.5% (inactive)", "0.8% (inactive)"]
